Target: T1, human glucose-dependent insulinotropic polypeptide receptor (GIPR), expressed on CHO-K1 cells (human, UniProt P48546 22-466)
T1 sequence (looked up): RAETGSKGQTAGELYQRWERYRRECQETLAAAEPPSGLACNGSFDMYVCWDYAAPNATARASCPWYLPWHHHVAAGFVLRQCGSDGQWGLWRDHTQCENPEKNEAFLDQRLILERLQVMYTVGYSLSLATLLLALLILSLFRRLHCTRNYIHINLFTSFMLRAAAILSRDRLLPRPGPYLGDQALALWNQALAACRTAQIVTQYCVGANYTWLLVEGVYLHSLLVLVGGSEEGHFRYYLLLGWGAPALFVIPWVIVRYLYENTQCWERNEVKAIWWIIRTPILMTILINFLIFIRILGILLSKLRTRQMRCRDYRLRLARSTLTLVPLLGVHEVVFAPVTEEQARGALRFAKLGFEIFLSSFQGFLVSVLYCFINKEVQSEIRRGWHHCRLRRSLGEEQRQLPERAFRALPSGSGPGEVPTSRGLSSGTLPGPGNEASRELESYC
Assay: cell-based or functional assay
Numbered stars: 1 amine (or outer) side, 2 acyl side, 3 side chain; on linkers, the order of the positions; unused ones are H or OH. Square brackets hold non-standard residues; d marks the D form. Primed or numbered codes have the meaning given here. Side chains are listed from the residue outwards. Ends that are not written are not given here. * marks the point of attachment. C18″ = C18 fatty acid moiety (of 2OEG-γGlu-C18, K*); γGlu = O=C(O)[C@H](CCC(=O)[*:2])N[*:1]; AEEA = NCCOCCOCC(=O)O; Aib = CC(C)(N)C(=O)O

BINDER	MEASUREMENT_UNITS	Relative % to non-lipidated peptide
H[Aib]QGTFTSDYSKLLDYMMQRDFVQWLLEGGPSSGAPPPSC-NH2 [Peptide No. 5-5]	%	100
Y[Aib]QGTFTSDYSK([AEEA-AEEA-γGlu-C18″])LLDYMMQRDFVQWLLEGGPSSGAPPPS-NH2 [Peptide No. 5-3D]	%	15
Y[Aib]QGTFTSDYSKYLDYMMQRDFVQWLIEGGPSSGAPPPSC-NH2 (not fully specified (residue 40)) [Peptide No. 5-2A]	%	0.4
